# assay.explanation: Therapeutic index, ratio of CC50 for human TZM-bl cells to IC50 for HIV1
# Assay type: cell-based
# setup.conditions: read-out: Ratio CC50/IC50
I'd appreciate it if you could supply selectivity ratio values for the items below.
Answer field: number only, no words.

Query: What value of measured selectivity ratio is listed for C=C1CC[C@@H]2[C@]3(C)COC(c4cccc([N+](=O)[O-])c4)O[C@@H]3CC[C@@]2(C)[C@@H]1C/C=C1/C(=O)OC[C@H]1O (stereo partly specified) ?
Reply: 1460

Query: // repeat for C=C1CC[C@@H]2[C@]3(C)COC(c4ccc5c(c4)OCO5)O[C@@H]3CC[C@@]2(C)[C@@H]1C/C=C1/C(=O)OC[C@H]1O (stereo partly specified) and report
Reply: 599

Query: // repeat for C=C1CC[C@@H]2[C@](C)(CO)[C@H](O)CC[C@@]2(C)[C@@H]1C/C=C1/C(=O)OC[C@H]1O [ANDROGRAPHOLIDE] and report
Reply: 2880

Query: // repeat for C=C1CC[C@@H]2[C@]3(C)COC(c4ccc(O)cc4)O[C@@H]3CC[C@@]2(C)[C@@H]1C/C=C1/C(=O)OC[C@H]1O (stereo partly specified) and report
Reply: 24

Query: // repeat for C=C1CC[C@@H]2[C@](C)(CO)[C@H](O)CC[C@@]2(C)[C@@H]1C/C=C1/C(=O)OC[C@H]1OC(=O)c1ccc(Cl)nc1Cl and report
Reply: 12500

Query: // repeat for C=C1CC[C@@H]2[C@]3(C)COC(c4ccc(O)cc4O)O[C@@H]3CC[C@@]2(C)[C@@H]1C/C=C1/C(=O)OC[C@H]1O (stereo partly specified) and report
Reply: 164
